This listing pairs compounds with measured cell viability.
System: SEM cells
Assay: cell viability relative to DMSO control; higher = less cytotoxic
Details: HPLM + 10% dialyzed FBS; 48 h; 0.0632 µM
Write the value in % as a bare number.

Answered cases to consult:
> print(dat)
                                   compound  test.target  numeric.readout
1           CNCCCC12CCC(c3ccccc31)c1ccccc12    SEM cells              116
2   COC(=O)Nc1nc2cc(C(=O)c3ccccc3)ccc2[nH]1    SEM cells              100
3  CCN1CCN(c2ccc(Nc3cc(N(C)C(=O)Nc4c(Cl)c(OC)cc(OC)c4Cl)ncn3)cc2)CC1    SEM cells              102
4  O=C1NC(=O)/C(=C/c2ccc3nccc(-c4ccncc4)c3c2)S1    SEM cells             95.5

Consider now this further compound.
Name the recorded cell viability for Cc1nn(Cc2ccccc2Cl)c(C)c1CN(C)CC(O)COc1ccc(Cl)cc1 (stereo not given) .
100

* * *

System: P12-Ichikawa
Assay: cell viability relative to DMSO control; higher = less cytotoxic
Settings: RPMI 5 mM glucose + 10% dialyzed FBS; 48 h; 0.19 µM
quantity name: cell viability
Field note: include the unit after the figure.

Answered cases to consult:
> print(dat)
                                   compound  result
1  O=C1c2ccccc2-[n+]2ccc3c([nH]c4ccccc43)c21    111%
2  O=C(Nc1cccc(C(F)(F)F)c1)Nc1cc([S+](=O)([O-])NC2CC2)ccc1-c1ccsc1    119%

Consider now this further compound.
So what cell viability did O=C(O)C1(Cc2cccc(Nc3nccs3)n2)CCC(Oc2cccc(Cl)c2F)CC1 (stereo not drawn) get with P12-Ichikawa?
117%

* * *

Tested on: NOMO1
Test: cell viability relative to DMSO control; higher = less cytotoxic
Conditions: RPMI 5 mM glucose + 10% dialyzed FBS; 48 h; 0.00702 µM
quantity name: cell viability
Field note: include the unit after the figure.

Answered cases to consult:
molecule	cell viability
CN[C@@H]1[C@@H](O)[C@@H](O[C@@H]2[C@@H](O)[C@H](O[C@H]3O[C@H](CN)[C@@H](O)[C@H](O)[C@H]3O)[C@@H](N)C[C@H]2NC(=O)[C@@H](O)CN)OC[C@]1(C)O	110%
CN[C@H]1CCC2=CC(=C(OC)C(=C2C/3=C/C=C(OC)\C(=O)/C=C13)OC)OC	102%
Cc1coc2c1C(=O)C(=O)c1c-2ccc2c(C)cccc12	111%
CC(C)OC(=O)/C1=C/N(CC(C)(C)C2=C1[NH]C3=CC=CC=C23)C(=O)C4=CC=C(F)C(=C4)F	70.6%
C[N]1C=C(C=N1)C2=C3\C=N/NC(=O)C4=C3C(=CC(=C4)NC(=O)[C@H](N)C5CCCCC5)[NH]2	105%

Name the recorded cell viability for CC1=C(C)C(=O)C(C(CCCCCC(=O)O)c2ccccc2)=C(C)C1=O (stereo unspecified) .
75%

Name the recorded cell viability for "S=C(NCc1ccc2c(c1)OCO2)N1CCN(c2ncnc3c2oc2ccccc23)CC1" .
119%

Name the recorded cell viability for "CC(C)(O)CC[C@@H](O)[C@](C)(O)[C@H]1CC[C@@]2(O)C/3=C/C(=O)[C@@H]4C[C@@H](O)[C@@H](O)C[C@]4(C)[C@H]3CC[C@]12C" .
108%

Name the recorded cell viability for "N[S+]([O-])(=O)C1=C(Cl)C=C2\N=C/N[S+]([O-])(=O)C2=C1" .
106%

Name the recorded cell viability for "CN[C@@H](C)[C@H]1[C@H](O)C[C@@]2(C)[C@@H]3CC[C@H]4C(C)(C)[C@@H](NC)CC[C@@]45C[C@@]35CC[C@]12C" .
101%

Name the recorded cell viability for "C[C@]12CC[C@@H]3c4ccc(O)cc4CC[C@H]3[C@@H]1[C@@H](O)[C@@H](O)[C@@H]2O" .
118%

* * *

Test system: NOMO1
Experiment: cell viability relative to DMSO control; higher = less cytotoxic
Conditions: HPLM + 10% dialyzed FBS; 48 h; 46.1 µM
quantity name: cell viability (%)
Write the value in % as a bare number.

Answered cases to consult:
compound	test target	units text	numeric readout
COC(=O)C[C@](O)(CCCC(C)(C)O)C(=O)O[C@@H]1C(OC)=CC23CCCN2CCc2cc4c(cc2[C@H]13)OCO4 (stereo not given in full)	NOMO1	%	96.6
CCN(CC)CCOc1ccc(/C(=C(\Cl)c2ccccc2)c2ccccc2)cc1	NOMO1	%	102
C[C@]12CCC(=O)C=C1CC[C@@H]1[C@@H]2[C@@H](O)C[C@@]2(C)[C@H]1CC[C@]2(O)C(=O)CO	NOMO1	%	109
CC(C)C1NC(=O)C(NC(=O)C2=C3\N=C\4/C(=C(C)\C(=O)\C(=C4C(=O)NC5C(C)OC(=O)C(C(C)C)N(C)C(=O)CN(C)C(=O)C6CCCN6C(=O)C(NC5=O)C(C)C)N)OC3=C(C)C=C2)C(C)OC(=O)C(C(C)C)N(C)C(=O)CN(C)C(=O)C7CCCN7C1=O (stereo not given)	NOMO1	%	2.47
COc1ccc(-c2ccc3ncc4c(c3c2)n(-c2ccc(N3CCNCC3)c(C(F)(F)F)c2)c(=O)n4C)cn1	NOMO1	%	2.4

Name the recorded cell viability for "C[C@]12CC[C@@H]3c4ccc(O)cc4CC[C@H]3[C@@H]1[C@@H](O)[C@@H](O)[C@@H]2O" .
102

Name the recorded cell viability for "CC[C@]12CC[C@H]3[C@@H](CCC/4=C/C(=O)CC[C@H]34)[C@@H]1\C=C/[C@@]2(O)C#C" .
124

Name the recorded cell viability for COc1ccccc1OCC(O)COC(N)=O (stereo not given) .
6.3

* * *

Tested on: P12-Ichikawa
Test: cell viability relative to DMSO control; higher = less cytotoxic
Conditions: RPMI 5 mM glucose + 10% dialyzed FBS; 48 h; 0.0632 µM
This listing pairs compounds with measured cell viability.
Write the value in % as a bare number.

Answered cases to consult:
compound structure	quantity name	units text	numeric readout
CC(C)c1ccc2c(c1)c(SC(C)(C)C)c(CC(C)(C)C(=O)[O-])n2Cc1ccc(Cl)cc1	cell viability	%	94.8
S=C(NCc1ccc2c(c1)OCO2)N1CCN(c2ncnc3c2oc2ccccc23)CC1	cell viability	%	107
Cc1c(C)n(Cc2ccc(-c3ccccc3C(=O)O)cc2)c2ccc(C(=O)N[C@@H](C)c3ccc([N+](=O)[O-])cc3)cc12	cell viability	%	106
C[C@]12CCC(=O)C=C1CC[C@@H]1[C@@H]2[C@@H](O)C[C@@]2(C)[C@H]1CC[C@]2(O)C(=O)CO	cell viability	%	112
C[S+](=O)([O-])Nc1ccc([N+](=O)[O-])cc1Oc1ccccc1	cell viability	%	121
CC(C)(C)OC(=O)N[C@H]1CCCCC/C=C\[C@@H]2C[C@@]2(C(=O)N[S+](=O)([O-])C2CC2)NC(=O)[C@@H]2C[C@@H](OC(=O)N3Cc4cccc(F)c4C3)CN2C1=O	cell viability	%	105

Name the recorded cell viability for "OC[C@H]1O[C@H]([C@H](O)[C@@H]1O)N2\C=C/C(=O)NC2=O" .
102

Name the recorded cell viability for "O=c1[nH]c(=O)n([C@H]2C[C@H](O)[C@@H](CO)O2)cc1/C=C/Br" .
112

* * *

This listing pairs molecules with measured cell viability.
Test system: P12-Ichikawa
Test: cell viability relative to DMSO control; higher = less cytotoxic
Conditions: RPMI 5 mM glucose + 10% dialyzed FBS; 48 h; 5.12 µM
Write the value in % as a bare number.

Answered cases to consult:
molecule	test target	cell viability [%]
C[S+](=O)([O-])Nc1ccc([N+](=O)[O-])cc1Oc1ccccc1	P12-Ichikawa	106
O=C(Nc1cccc(C(F)(F)F)c1)Nc1cc([S+](=O)([O-])NC2CC2)ccc1-c1ccsc1	P12-Ichikawa	107
CC(C)c1ccc2c(c1)c(SC(C)(C)C)c(CC(C)(C)C(=O)[O-])n2Cc1ccc(Cl)cc1	P12-Ichikawa	81.7
CC(C)(C)OC(=O)N[C@H]1CCCCC/C=C\[C@@H]2C[C@@]2(C(=O)N[S+](=O)([O-])C2CC2)NC(=O)[C@@H]2C[C@@H](OC(=O)N3Cc4cccc(F)c4C3)CN2C1=O	P12-Ichikawa	94.2
CCN1CCN(c2ccc(Nc3cc(N(C)C(=O)Nc4c(Cl)c(OC)cc(OC)c4Cl)ncn3)cc2)CC1	P12-Ichikawa	76.8
O=C(O)C1(Cc2cccc(Nc3nccs3)n2)CCC(Oc2cccc(Cl)c2F)CC1 (configuration not stated)	P12-Ichikawa	65.2

Name the recorded cell viability for "CC[C@H](/C=C/[C@@H](C)[C@H]1CC[C@H]2[C@@H]3CC=C4C[C@@H](O)CC[C@]4(C)[C@H]3CC[C@]12C)C(C)C" .
87
